Parameter: Emax. Scope: all listed entries.
Biological target: Delta-type opioid receptor (Homo sapiens)
Sequence (P41143 whole entry): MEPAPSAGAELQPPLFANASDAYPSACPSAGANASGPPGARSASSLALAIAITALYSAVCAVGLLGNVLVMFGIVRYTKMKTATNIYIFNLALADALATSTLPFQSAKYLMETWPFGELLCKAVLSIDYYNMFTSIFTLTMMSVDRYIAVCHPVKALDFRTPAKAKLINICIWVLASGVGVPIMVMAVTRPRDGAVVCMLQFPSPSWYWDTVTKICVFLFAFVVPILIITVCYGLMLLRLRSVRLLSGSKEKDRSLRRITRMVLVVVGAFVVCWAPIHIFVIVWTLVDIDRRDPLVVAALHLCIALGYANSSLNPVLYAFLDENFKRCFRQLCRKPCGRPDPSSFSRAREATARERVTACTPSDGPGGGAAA
Experiment: Agonist activity at human DOR expressed in CHO-K1 cells co-expressing G-alpha15 by calcium mobilization assay relative to control
Type: functional, cell-based
Settings: filed as agonist
reported_property: Emax (%)

> print(dat)
                            chemical.smiles                               test.system  reported.property  experimental.value
1  Cc1cc(O)cc(C)c1C[C@H](N)C(=O)N[C@@H]1CCCCNC(=O)C[C@H](C(=O)N2CCC[C@H]2C(N)=O)NC(=O)[C@H](Cc2ccccc2)NC(=O)CNC1=O  Delta-type opioid receptor (Homo sapiens)               Emax                 116
2  NC(=O)[C@@H]1CCCN1C(=O)[C@H]1CC(=O)NCCCC[C@@H](NC(=O)[C@@H](N)Cc2ccc(O)cc2)C(=O)NCC(=O)N[C@H](Cc2ccccc2)C(=O)N1  Delta-type opioid receptor (Homo sapiens)               Emax                72.8
3  NC(=O)[C@@H]1CCCN1C(=O)[C@H]1CC(=O)NCCCC[C@@H](NC(=O)[C@@H](N)Cc2ccc(O)cc2)C(=O)NCC(=O)N[C@@H](CC2CCCCC2)C(=O)N1  Delta-type opioid receptor (Homo sapiens)               Emax                54.4
4  NC(=O)[C@@H]1CCCN1C(=O)[C@H]1CC(=O)NCCCC[C@@H](NC(=O)[C@@H](N)Cc2ccc(O)cc2)C(=O)NCC(=O)N[C@@H](CCc2ccccc2)C(=O)N1  Delta-type opioid receptor (Homo sapiens)               Emax                66.6
5  NC(=O)[C@H]1CCCCN1C(=O)[C@H]1CC(=O)NCCCC[C@@H](NC(=O)[C@@H](N)Cc2ccc(O)cc2)C(=O)NCC(=O)N[C@@H](Cc2ccccc2)C(=O)N1  Delta-type opioid receptor (Homo sapiens)               Emax                95.4
6  NC(=O)[C@@H]1CCCCN1C(=O)[C@H]1CC(=O)NCCCC[C@@H](NC(=O)[C@@H](N)Cc2ccc(O)cc2)C(=O)NCC(=O)N[C@@H](Cc2ccccc2)C(=O)N1  Delta-type opioid receptor (Homo sapiens)               Emax                 101

Origin of measurements: ChEMBL document CHEMBL5532665
